These data points were gathered from patent US20200199207A1.

# system: natural peanut extract
# assay remarks: ELISA, antigen-coated plate
Attribute: EC50
Answer with a number only, understood to be in ng/mL.

Answered cases to consult:
Which EC50 is reported for this binder? h7G6 (antibody, V domains shown) VH: QVQLVESGGGVVQPGRSLRLSCAASGIAFNDYTMHWVRRSPDKGLEWVAAISYGGTNKYYADSVKGRFTISRDSSKNTLFLQMDSLRVEDTAVYYCARDSGYRSLLHWGQGTLVTVSS VL: EIVLTQSPLSLPVTPGEPASISCRSSQSLVHRNGYNYLDWYLQKPGQSPQLLIYMASKRASGVPDRFSGSGSGTEFTLKISRVEAEDVGIYYCMQALQTWTFGQGTKVEVN
2.8

Which EC50 is reported for this binder? h2F8 (antibody, V domains shown) VH: EVQLVESGGGLVKPGGSLRLSCAASGFIFSDYNMNWVRQAPGKGLEWVSSITRSSRTIYYADSVKGRFTISRDNAKNSLHLQMNSLRDADTAVYYCAREDFDVSTGPYYMDVWGNGTTVIVSS VL: EIVLTQSPGTLSLSPGERATLSCRASQSVSNMFLVWYQQKPGQAPRLLMYGASTRATDIPDRFSGSGSGTDFTLTISRLEPEDFAVYYCQQNGNSPYTFGQGTKLEIK
2.8

Which EC50 is reported for this binder? hm37D5 (antibody, V domains shown) VH: EEQLVESGGRLLRPGESLSLSCAAVGFNFGDFGMAWVRQPPGKGLEWVAGINWSGHSTGFVDSMKGRLTISRDSAKSSLFLQMNSLRGEDTAVYYCARVGRLCSGDICDSMGAFDLWGQGTMVTVSS VL: DIQMTQSPSTLSASIGDRVTITCRASQTIDNWLAWYQQRPGKAPKLLIYQASSLQSGVSSRFRGSGSGTEFTLTITSLQPDDFATYYCQKSNGYSRTFGQGTKVEIK
7.1

Which EC50 is reported for this binder? h12G10 (antibody, human IgG1, V domains shown) VH: EVQLLESGGRLLRPGGSLSLSCVASGFYFGDFGMSWVRQVPGKGLEWVSGIDWSGRSTGYVDSMKGRLTISRDNDKSSLYLQMNDLRGEDTAVYYCARVGRLCSGDSCDSMGAFDLWGQGTMVTVSS VL: DIQLTQSPSTLSASIGDSVTITCRASQNIDNWLAWYQQKPGKAPRLLIYKASSLGSGVSSKFRGSGFGTEFTLTITSLQPDDFATYYCQKSNGYSRTFGQGTKVDIK
8.1

Which EC50 is reported for this binder? h37D5 (antibody, V domains shown) VH: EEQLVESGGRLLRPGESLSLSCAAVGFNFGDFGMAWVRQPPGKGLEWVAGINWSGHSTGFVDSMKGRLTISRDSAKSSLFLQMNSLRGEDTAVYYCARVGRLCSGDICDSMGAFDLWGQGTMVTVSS VL: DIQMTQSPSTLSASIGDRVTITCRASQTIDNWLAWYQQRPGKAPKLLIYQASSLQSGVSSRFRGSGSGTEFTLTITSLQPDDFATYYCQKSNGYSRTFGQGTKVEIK
6.5

Now consider the entry below.
Which EC50 is reported for this binder? h32B10 (antibody, V domains shown) VH: QVQLVQSGAEVKKPGASVKVSCRASGYIFRNFDINWVRQATGQGLEWMGWMSPKSGDTGYAQKFQGRVTMTRDTSINTAYMELSSLTSEDSAVYYCARGVDGTNWGQGTRVTVSS VL: DIVMTQSPDSLGVSLGERATISCKSSQSILDNSNNKNFIAWFQQKPGQPPKLLIYWASARESGVPDRFSGSGSGTEFTLTINSLQAEDVAVYYCYQYYSTPHTFGQGTKLDLR
4.8
